# System: A375 multi-cell spheroids with HUVEC/MSC, viability
# ASSAY EXPLANATION: Anticancer human tumor A375 cell line growth inhibition [GQUAD];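 also: spheroids exposed to compounds for seven days before readout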
# CONDITION SET: curve of first compound; second compound 0.1 µM
pIC50: −log10 of the molar value.
MEASURED METRIC: pIC50

O=c1[nH]cc(F)c(=O)[nH]1 + Cc1cnc(CNC(=O)c2c(=O)c3ccc(N4CCCN(C)CC4)nc3n3c2sc2ccccc23)cn1    < 5.00
COc1cccc2c1C(=O)c1c(O)c3c(c(O)c1C2=O)CC(O)(C(=O)CO)CC3OC1CC(N)C(O)C(C)O1 (stereo unspecified) + CN(C)c1ccc(Nc2c3ccc(NC(=O)CCN4CCCC4)cc3nc3cc(NC(=O)CCN4CCCC4)ccc23)cc1    6.67
C=CC(=O)N1CCN(c2nc(=O)n(-c3c(C)ccnc3C(C)C)c3nc(-c4c(O)cccc4F)c(F)cc23)C(C)C1 (stereo unspecified) + Cc1cnc(CNC(=O)c2c(=O)c3ccc(N4CCCN(C)CC4)nc3n3c2sc2ccccc23)cn1    < 5.00
CC1COCCN1c1cc(C2(O)CC3CCC(C2)O3)c2cnn(-c3ccn[nH]3)c2n1 (stereo unspecified) + Cc1[nH]c2ccc(F)cc2c1-c1nc2c3cccnc3c3ncccc3c2[nH]1    6.45
CC(C)(O)C1CCC(Nc2ccc3ncc(-c4cccc(C(F)(F)F)c4)n3n2)CC1 (stereo unspecified) + Cc1[nH]c2ccc(F)cc2c1-c1nc2c3cccnc3c3ncccc3c2[nH]1    < 5.00
COc1cc(C2c3cc4c(cc3C(OC3OC5COC(C)OC5C(O)C3O)C3COC(=O)C23)OCO4)cc(OC)c1O (stereo unspecified) + Cc1cnc(CNC(=O)c2c(=O)c3ccc(N4CCCN(C)CC4)nc3n3c2sc2ccccc23)cn1    6.67
O=C(c1cc(Cc2n[nH]c(=O)c3ccccc23)ccc1F)N1CCN(C(=O)C2CC2)CC1 + Cc1cnc(CNC(=O)c2c(=O)c3ccc(N4CCCN(C)CC4)nc3n3c2sc2ccccc23)cn1    < 5.00
CC(C)n1c(=O)n(C)c2cnc3cc(F)c(-c4ccc(OCCCN5CCCCC5)nc4)cc3c21 + CN(C)c1ccc(Nc2c3ccc(NC(=O)CCN4CCCC4)cc3nc3cc(NC(=O)CCN4CCCC4)ccc23)cc1    < 5.00
COc1ccc([C@@H](O)c2cc(-c3ncnc4cc(N5CCOCC5)ccc34)c(F)cc2Cl)nn1 + Cc1[nH]c2ccc(F)cc2c1-c1nc2c3cccnc3c3ncccc3c2[nH]1    < 5.00
CC1COCCN1c1cc(C2(O)CC3CCC(C2)O3)c2cnn(-c3ccn[nH]3)c2n1 (stereo unspecified) + Cc1cnc(CNC(=O)c2c(=O)c3ccc(N4CCCN(C)CC4)nc3n3c2sc2ccccc23)cn1    7.24

The molecule listed as COc1ncnc(C2CC2)c1-c1ncc2cnn(Cc3ccc(-c4nc(C(F)(F)F)cn4C(C)C)cc3)c2n1 + CN(C)c1ccc(Nc2c3ccc(NC(=O)CCN4CCCC4)cc3nc3cc(NC(=O)CCN4CCCC4)ccc23)cc1 has a reported pIC50 of < 5.00
